# Test system: Ran GTPase (GTP-bound) - importin-beta complex
# EXPERIMENTAL PROTOCOL: disruptors of Ran-importin-beta complex formation – biochemical, FRET, CFP-Ran, YFP-importin-beta, homogeneous, primary screen (AID 2216)
# CONDITION CONTEXT: cell-free CFP-Ran/YFP-importin-beta FRET ratio; concentration not given here
The whole screen tested about 300,000 compounds, of which about 3,300 (1.1%) were called active. Inconclusive results (about 6%) are left out.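 How the source made its calls: active means more than half of the replicate wells show a fall in the fluorescence ratio signal beyond about 16% (limit read from the data, passing the limit was not always enough); inconclusive means exactly half of the replicate wells pass the set limit; inactive means fewer than half of replicates pass the limit.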 The list comes from a sample in which actives are over-represented; it also holds close analogues and randomly drawn compounds.
Can you answer with just one of these options? active, inactive

Q: # outcome recorded in this test, key = CC1CN(c2cc(=O)n(Cc3ccc(F)cc3)c(=O)[nH]2)CC(C)O1 (stereo unspecified)
Ans: inactive

Q: For `Cc1occc1C(=O)N/N=C/c1ccc(-c2cccc([N+](=O)[O-])c2)o1` , what call appears in the results of this test?
Ans: inactive

Q: Given `O=C1CC2(CCCC2)Oc2ccc(Cl)cc21` , state the outcome it received in this test.
Ans: inactive

Q: Check the results log: what was the call for CC1CN(c2cc(=O)n(-c3cccc(Br)c3)c(=O)[nH]2)CC(C)O1 (stereo unspecified) ?
Ans: active

Q: Kindly provide the recorded test outcome for the following molecule: COc1ccc(CNC(=O)C2(CC3CC(c4ccccc4)=NO3)CCN(C(=O)c3cccc(O)c3)CC2)cc1 (stereo unspecified)
Ans: inactive

Q: Could you please tell me the result logged for `O=[N+]([O-])c1ncc(Br)cc1Nc1ccccc1` in this assay?
Ans: inactive

Q: Hey, what did the test say about `Cc1cc(C)c(OCC(=O)N/N=C/c2ccco2)c(C)c1` ?
Ans: inactive

Q: Just curious, what result did `COC(=O)C1=C(C)N(c2ccc(Br)cc2)C(=O)/C1=C\c1ccco1` get here?
Ans: inactive

Q: Check the results log: what was the call for `CS(=O)(=O)N(CC(=O)N1CCc2ccccc2C1)c1ccc(Br)cc1` ?
Ans: inactive

Q: What classification did `O=C(Nc1cc2ccccc2oc1=O)C1CCCCC1` end up with in this test?
Ans: inactive

Q: Can you look up the reported call for `Cc1ccc(OCCNC(=O)CNC(=O)c2ccc(C)c(C)c2)cc1` for me?
Ans: inactive
